Reference source for all entries: PubChem BioAssay (NCI)

# Test system: KM12 colon
# Procedure details: NCI tumour cell line growth inhibition, 48 h
Measurement kind: TGI

Molecule: C=C1C(=O)O[C@H]2C3C(=C(C)CC[C@@H]12)C(=O)[C@@H]1OC31C (stereo partly specified)
Measurement kind: TGI
Observed measurement: 20.2 µM
//
Molecule: Cc1nc2sc(C(=O)Nc3cccc(Cl)c3C)c(N)c2cc1C(C)O (stereo unspecified)
Measurement kind: TGI
Observed measurement: > 41.1 µM
//
Molecule: COc1ccc(/C=C/c2cnc3ccccc3n2)cc1OC
Measurement kind: TGI
Observed measurement: > 100 µM
//
Molecule: COc1cc(S(=O)(=O)N/N=C/c2cc(Br)c(O)c(OC)c2)c(OC)cc1NC(C)=O
Measurement kind: TGI
Observed measurement: > 100 µM
//
Molecule: COc1cc(C2(C)SCCCS2)c(I)c(OC)c1OC
Measurement kind: TGI
Observed measurement: > 100 µM
//
Molecule: CCOC(=O)NC(=O)c1cn(C2OC(CO)C(O)C2O)c(=O)[nH]c1=O (stereo unspecified)
Measurement kind: TGI
Observed measurement: > 100 µM
//
Molecule: N#Cc1c(NCc2ccccc2)nc(NCc2ccccc2)c(C#N)c1-c1cccc(O)c1
Measurement kind: TGI
Observed measurement: > 100 µM
//
Molecule: C/C(=C\c1ccccc1)C(=O)NCc1ccc(C(=O)NCCc2c[nH]c3ccccc23)cc1
Measurement kind: TGI
Observed measurement: > 100 µM
//
Molecule: C=C1C(=O)O[C@H]2[C@H]1CC/C(COC(=O)/C=C/c1c[nH]c3ccccc13)=C\CC[C@@]1(C)O[C@@H]21
Measurement kind: TGI
Observed measurement: 1.64 µM
//
Molecule: N=C1C(c2nc(-c3ccc(Br)cc3)cs2)=C(O)CN1CC1CCCO1 (stereo unspecified)
Measurement kind: TGI
Observed measurement: > 100 µM
//
Molecule: CCOC(=O)C1=C(C)N(c2ccc(C)cc2)C2(O)C=CC(=O)C3=C(O)c4ccccc4C(=O)C312 (stereo unspecified)
Measurement kind: TGI
Observed measurement: > 100 µM

* * *

# System: CCRF-CEM leukemia
# Procedure details: NCI tumour cell line growth inhibition, 48 h
Measurement kind: TGI

Compound: COc1ccccc1N1C(=O)/C(=C\c2cccc(Oc3ccccc3)c2)S(=O)(=O)C1c1ccccc1 (stereo not drawn)
Measurement kind: TGI
Observed measurement: > 100 µM
//
Compound: Nc1ccc(-c2nc3ccccc3s2)cc1
Measurement kind: TGI
Observed measurement: 54.4 µM
//
Compound: O=C1OC(c2ccccc2)=N/C1=C/N1CCCC1C(=O)O (stereo not drawn)
Measurement kind: TGI
Observed measurement: > 100 µM
//
Compound: C/C(=C\CNc1nc(Cl)nc2nc[nH]c12)CO
Measurement kind: TGI
Observed measurement: > 100 µM
//
Compound: O=C(Nc1ccccc1C(=O)Nc1nccs1)c1ccccc1
Measurement kind: TGI
Observed measurement: > 100 µM
//
Compound: O=C(O)c1cc2c(c3ccsc13)-c1ccccc1CC2
Measurement kind: TGI
Observed measurement: > 100 µM
//
Compound: COC(=O)C1=C(c2cc(OC)c(OC)c(OC)c2)O[C@H](c2ccc3c(c2)OCO3)[C@H]1COC(C)=O
Measurement kind: TGI
Observed measurement: > 100 µM
//
Compound: N[C@H](C(=O)O)[C@@H](Cl)CC(=O)O
Measurement kind: TGI
Observed measurement: > 100 µM
//
Compound: CCN(CC)CCOc1nc2cc(OC)c(OC)cc2c2c1-c1ccc(OC)cc1C2=O
Measurement kind: TGI
Observed measurement: 12.3 µM
//
Compound: Cc1ccc(SCC(O)=C2C(=O)CCCC2=O)cc1
Measurement kind: TGI
Observed measurement: > 100 µM
//
Compound: C/C(=C\c1ccccc1)C(=O)NCc1ccc(C(=O)NCCc2c[nH]c3ccccc23)cc1
Measurement kind: TGI
Observed measurement: > 100 µM
//
Compound: CC(C)(O)CCC(O)C(C)(O)C1CCC2(O)C3=CC(=O)C4(O)CC(O)C(O)CC4(C)C3CCC12C (stereo not drawn) (tested in a mixture with another compound)
Measurement kind: TGI
Observed measurement: > 100 µM
//
Compound: C=C1C(=O)O[C@H]2C/C(C=O)=C\[C@H]3O[C@H]3/C(COC(=O)C(C)C)=C/CC12 (stereo partly drawn)
Measurement kind: TGI
Observed measurement: 6.63 µM
//
Compound: O=C1C2=C(c3ccccc31)C(c1ccc(Cl)cc1)NC(=S)N2 (stereo not drawn)
Measurement kind: TGI
Observed measurement: 54.6 µM
//
Compound: COC(=O)C1=C(C)NC2(C)OC(C)(O)C(C(C)=O)C12C(C)=O (stereo not drawn)
Measurement kind: TGI
Observed measurement: > 100 µM
//
Compound: COC1=CC(=O)c2c(cc(COP(=O)(N(C)CCBr)N(C)CCBr)n2C)C1=O
Measurement kind: TGI
Observed measurement: 19 µM
//
Compound: CCOC(=O)c1c(-c2ccc(OC)c(O)c2)c(C#N)c(=S)n(C2OC(CO)C(O)C(O)C2O)c1-c1ccccc1 (stereo not drawn)
Measurement kind: TGI
Observed measurement: > 100 µM
//
Compound: CC(C)N(Cc1ccccc1)S(=O)(=O)c1n[nH]c(C(C)(C)C)n1
Measurement kind: TGI
Observed measurement: > 100 µM
//
Compound: CN(C)CCNc1c2c(c(NCCN(C)C)c3c(CO)c[nH]c13)C(=O)c1ccccc1C2=O
Measurement kind: TGI
Observed measurement: > 32.1 µM
//
Compound: S=C(Nc1ccccc1)N1CCn2c1nsc2=Nc1ccccc1
Measurement kind: TGI
Observed measurement: > 100 µM
//
Compound: COc1cc(N=Nc2cccc(S(N)(=O)=O)c2)c2ccccc2c1N
Measurement kind: TGI
Observed measurement: 38.6 µM
//
Compound: Cn1c(=O)c2sc3cc4c(cc3c2c2ccccc21)sc1c(=O)n(C)c2ccccc2c14
Measurement kind: TGI
Observed measurement: > 100 µM
//
Compound: Cc1cc(Cl)ccc1NC(=O)CCCC(=O)C(C(=O)c1ccccc1)c1ccccc1 (stereo not drawn)
Measurement kind: TGI
Observed measurement: > 100 µM
//
Compound: N#Cc1ccc2c(c1)C(=O)c1c-2n(CCCN=[N+]=[N-])c(=O)c2cc([N+](=O)[O-])ccc12
Measurement kind: TGI
Observed measurement: > 50 µM
//
Compound: S=C(Nc1ccc2c(c1)Cc1ccccc1-2)Nc1ccc2c(c1)Cc1ccccc1-2
Measurement kind: TGI
Observed measurement: 27.2 µM
//
Compound: CN(CCN(C)C(=O)CCn1ccc(=O)[nH]c1=O)C(=O)CCn1ccc(=O)[nH]c1=O
Measurement kind: TGI
Observed measurement: > 100 µM
//
Compound: CCCNc1cccc(-n2ncc3c(N/N=C/c4ccncc4)ncnc32)c1
Measurement kind: TGI
Observed measurement: > 25 µM
//
Compound: O=C(O)CCCc1ccc2c(c1)CC1(C2)Cc2ccc(CCCC(=O)O)cc2C1
Measurement kind: TGI
Observed measurement: > 100 µM
//
Compound: CCOC(=O)C1=C(C)N(c2ccc(C)cc2)C2(O)C=CC(=O)C3=C(O)c4ccccc4C(=O)C312 (stereo not drawn)
Measurement kind: TGI
Observed measurement: > 100 µM
//
Compound: CCCCCCc1cn([C@H]2C[C@H](O)[C@@H](CO)O2)c(=O)[nH]c1=O
Measurement kind: TGI
Observed measurement: > 100 µM
//
Compound: O=C(/C=C/c1ccccc1)CCc1c(O)c2ccccc2oc1=O
Measurement kind: TGI
Observed measurement: > 100 µM
//
Compound: FC(F)(F)c1cc(NC2=NCCN=C(Nc3cc(C(F)(F)F)cc(C(F)(F)F)c3)SS2)cc(C(F)(F)F)c1
Measurement kind: TGI
Observed measurement: 27 µM
//
Compound: c1ccc(-c2cnc3nc4ccccc4nc3n2)cc1
Measurement kind: TGI
Observed measurement: 10.2 µM
//
Compound: NC1CCCCC1N.O=S(=O)([O-])CCCN1CCN(CCO)CC1.O=S(=O)([O-])CCCN1CCN(CCO)CC1.[Pt+4]
Measurement kind: TGI
Observed measurement: > 50.5 µM
//
Compound: CC(C)CC(NC(=O)C(COc1ccc([N+](=O)[O-])cc1)Cc1ccccc1)C(=O)Nc1ccccc1 (stereo not drawn)
Measurement kind: TGI
Observed measurement: > 100 µM
//
Compound: CC(=O)Nc1ccc(/C=C(\NC(=O)c2ccccc2)C(=O)NNS(=O)(=O)c2ccc(C)cc2)cc1
Measurement kind: TGI
Observed measurement: > 100 µM
//
Compound: O=C(NCc1ccccc1)c1c(O)c2ccccc2[nH]c1=O
Measurement kind: TGI
Observed measurement: > 100 µM
//
Compound: Cc1ccc2c(=O)c(C(=O)N(CCO)CCO)c[nH]c2n1
Measurement kind: TGI
Observed measurement: > 100 µM
